This section presents compounds with their documented CC50 values.
Test: Cytotoxicity (FIPV example)
Assay type: cell-based, feline
Settings: Table 9 (FIPV); cell line for cytotoxicity not given
QUANTITY MEASURED: CC50

INSERT INTO results (compound, observed_value) VALUES
  ('O=C[C@@H](CO)O[C@H](C=O)n1cnc2c(=O)[nH]cnc21 [Dialdehyde-Inosine, dialdehyde form of inosine]', '> 10 mM'),
  ('O=C[C@@H](CO)O[C@H](C=O)n1cnc2c(=O)[nH]c(=O)[nH]c21 [Dialdehyde-Xanthosine, dialdehyde form of xanthosine]', '> 10 mM');

* * *

Below, each entry is listed alongside its reported CC50.
Assay: Cytotoxicity (FPV example)
Assay type: cell-based, feline
Settings: Table 7 (FPV); cell line for cytotoxicity not given
QUANTITY MEASURED: CC50

INSERT INTO assay_data (molecule, quantity_measured, observed_value) VALUES
  ('O=C[C@@H](CO)O[C@H](C=O)n1cnc2c(=O)[nH]c(=O)[nH]c21 [Dialdehyde-Xanthosine, dialdehyde form of xanthosine]', 'CC50', '> 8 mM'),
  ('O=C[C@@H](CO)O[C@H](C=O)n1cnc2c(=O)[nH]cnc21 [Dialdehyde-Inosine, dialdehyde form of inosine]', 'CC50', '> 10 mM');
